- measurementTarget: huCD79b-N (human) (UniProt P40259)
- assayRemarks: BLI (ForteBio), antibody loaded on sensor, antigen in solution
property: pKd
Keep it numeric: pKd is minus log10 of the concentration in mol/L.

Reported pKd, binder hz11G10.9.p1 (antibody, V domains shown) VH: QVQLVQSGAEVKKPGASVKVSCKASGYTFTDYWVNWVRQAPGQGLEWMGMIDPSDSETHYNQMFNDRVTMTVDTSTSTVYMELSSLRSEDTAVYYCTRSNYYWGQGTLVTVSS VL: DIVMTQTPLSLSVTPGQPASISCKSSQSLLDSEGKTYLNWLLQKPGQSPQSLIYLVSKLDSGVPDRFSGSGSGTDFTLKISRVEAEDVGVYYCWQGTHFPLTFGGGTKVEIK : ____
8.47

The reported numbers originate from patent US20240343799A1.
